- Test system: RPMI-8226
- test method notes: NCI tumour cell line growth inhibition, 48 h
Activity calls are given as the source filed them. Rule as the data show it: active = GI50 up to about 1.1 µM and inactive = higher.
Recorded GI50, one value per entry.
value type: GI50

molecule="COc1ccc(/C=c2\\sc3n(c2=O)C(N)=C(C#N)C(c2ccc(OC)cc2)C=3c2nc3ccccc3[nH]2)cc1 (stereo not given)" observed_value="55.6 µM (inactive)"
molecule=Oc1[nH]c(Nc2cccc(CC(F)(F)F)c2)nc2ncnc1-2 observed_value="> 100 µM (inactive)"
molecule=CCOCc1cc(=O)c2cc3c(cc2o1)OC(C)(C)CC3 observed_value="91.4 µM (inactive)"
molecule=C[C@@H]1CC[C@@H]2[C@@H](C1)O[C@@H]([C@H](C)OCc1ccccc1)SC2(C)C observed_value="17.4 µM (inactive)"
molecule=Nc1ccccc1OCCCOc1ccccc1N observed_value="> 100 µM (inactive)"
molecule=O=c1c2ccccc2sc2cccc(NCCCN3CCN(CCCNc4cccc5sc6ccccc6c(=O)c45)CC3)c12 observed_value="> 100 µM (inactive)"
molecule="COc1cc2c(cc1OC)C(CC1=C(c3ccccc3)CN3CCc4cc(OC)c(OC)cc4C3C1)NCC2 (stereo not given)" observed_value="9.84 µM (inactive)"
molecule=Nc1nc(Cl)cc(NCCCCO)n1 observed_value="> 100 µM (inactive)"
molecule=O=C1c2c(nc3ccccc3c2-c2ccccc2)CN1Nc1ccccc1 observed_value="> 100 µM (inactive)"
molecule=COc1cc(/C=[N+](\[O-])c2ccccc2Cl)ccc1OC(=S)S observed_value="29.2 µM (inactive)"
